src = patent US7645752B2

assayed-system: human cloned 5-HT6 receptors (Homo sapiens, UniProt P50406)
Construct: expressed in transfected cells; host or cells: HeLa cells
Sequence (P50406 whole entry): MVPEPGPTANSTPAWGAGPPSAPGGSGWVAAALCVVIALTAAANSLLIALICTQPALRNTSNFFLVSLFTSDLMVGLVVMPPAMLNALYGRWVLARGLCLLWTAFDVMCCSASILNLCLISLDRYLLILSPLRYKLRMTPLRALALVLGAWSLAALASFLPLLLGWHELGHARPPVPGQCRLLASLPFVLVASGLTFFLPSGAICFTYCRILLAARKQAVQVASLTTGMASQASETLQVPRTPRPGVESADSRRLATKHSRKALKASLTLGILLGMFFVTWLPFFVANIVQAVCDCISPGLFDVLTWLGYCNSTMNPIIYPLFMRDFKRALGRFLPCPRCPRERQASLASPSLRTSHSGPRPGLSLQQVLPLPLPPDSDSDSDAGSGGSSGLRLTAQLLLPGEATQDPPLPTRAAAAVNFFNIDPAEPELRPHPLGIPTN
protocol-summary: 5-HT6 binding affinity, [3H]-LSD displacement on membranes of Hela cells
cond: Table 1; [3H]-LSD 3.0 nM, Hela cell membranes; read-out: Ki (nM) @ 5-HT6 receptor
Protocol: The affinity of test compounds for the 5-HT6 receptor is evaluated in the following manner. Cultured Hela cells expressing human cloned 5-HT6 receptors are harvested and centrifuged at low speed (1,000×g) for 10.0 min to remove the culture media. […] The final pellet is suspended in a small volume of Tris.HCl buffer and the tissue protein content is determined in aliquots of 10-25 microliter volumes. […]
readout: Ki (nM)

Past entries and their recorded results:
compound=CNCCc1ccc2[nH]c(-c3ccccc3)c(S(=O)(=O)c3ccccc3)c2c1 assayed_system="human cloned 5-HT6 receptors (Homo sapiens, UniProt P50406)" readout=Ki val=355
compound=O=S(=O)(c1ccccc1)c1c[nH]c2cccc(CCNC3CCC3)c12 assayed_system="human cloned 5-HT6 receptors (Homo sapiens, UniProt P50406)" readout=Ki val=47
compound=O=S(=O)(c1cccc(F)c1)c1c[nH]c2cccc(CCNC3CCCC3)c12 assayed_system="human cloned 5-HT6 receptors (Homo sapiens, UniProt P50406)" readout=Ki val=78

P. O=S(=O)(c1ccccc1)c1c[nH]c2ccc(CCN3CCNCC3)cc12
Q. CCN(C)CCc1cccc2[nH]cc(S(=O)(=O)c3cccc(F)c3)c12
# min-compare on Ki between P and Q Response format: the label of the selected entry. P

A. CC(C)CNCCc1cccc2[nH]cc(S(=O)(=O)c3cccc(F)c3)c12
B. O=S(=O)(c1ccccc1)c1c[nH]c2ccc(CCN3CCCC3)cc12
C. CCN(C)CCc1ccc2c(S(=O)(=O)c3ccccc3)c[nH]c2c1
D. CNCCc1ccc2[nH]cc(S(=O)(=O)c3ccccc3)c2c1
E. O=S(=O)(c1ccccc1)c1c[nH]c2cccc(CCNC3CC3)c12
Falling order of Ki, please. Answer by writing out the labels in the requested order. E, C, B, A, D

I. CCC(C)CNCCc1cccc2[nH]cc(S(=O)(=O)c3cccc(F)c3)c12 (stereo not shown)
II. O=S(=O)(c1ccccc1)c1c[nH]c2c(CCNC3CCCC3)cccc12
Select the item whose Ki value is smaller, choosing between I and II . State your choice using its label. II

P. O=S(=O)(c1ccccc1)c1c[nH]c2c(CCN3CCCC3)cccc12
Q. O=S(=O)(c1cccc(F)c1)c1c[nH]c2cccc(CCNC3CCCCC3)c12
R. CCN(C)CCc1ccc2[nH]cc(S(=O)(=O)c3ccccc3)c2c1
Sort by Ki, descending. # format: label list in the order the request specifies Q, P, R
(Q: 180 nM, P: 18 nM, R: 7 nM)

----------
Where a name gives a salt, the structure may show the parent alone.
readout: melting point

Consider the reported melting point for these compounds:
compound="O=S(=O)(c1ccccc1)c1c[nH]c2cccc(CCN3CCCC3)c12 (as salt: hydrochloride) [Example 43]" val="145 to 150 °C"
compound="NCCc1ccc2[nH]cc(S(=O)(=O)c3ccccc3)c2c1 (as salt: hydrochloride) [Example 12]" val="200 °C"
compound="CCN(CC)CCc1cccc2[nH]cc(S(=O)(=O)c3ccccc3)c12 (as salt: hydrochloride) [Example 42]" val="77 to 83 °C"

Next up:
Suppose we examine the compound CCN(C)CCc1cccc2[nH]cc(S(=O)(=O)c3ccccc3)c12 (as salt: hydrochloride) [Example 40] ; what melting point value has been reported? 92 to 98 °C

----------
Where a name gives a salt, the structure may show the parent alone.
readout: melting point (°C)

compound="CCN(C)CCc1ccc2[nH]cc(S(=O)(=O)c3ccccc3)c2c1 (as salt: hydrochloride)" readout="melting point" unit_of_measurement=°C val=203
compound="CN(C)CCc1ccc2[nH]cc(S(=O)(=O)c3ccccc3)c2c1 (as salt: hydrochloride)" readout="melting point" unit_of_measurement=°C val=251

----------
assayed-system: human cloned 5-HT6 receptors (Homo sapiens, UniProt P50406)
Construct: expressed in transfected cells; host or cells: HeLa cells
protocol-summary: 5-HT6 binding affinity, [3H]-LSD displacement on membranes of Hela cells
cond: Table 1; [3H]-LSD 3.0 nM, Hela cell membranes; read-out: Ki (nM) @ 5-HT6 receptor
readout: Ki (nM)

Field: example entries. Status: answers known.
compound="CNCCc1cccc2[nH]cc(S(=O)(=O)c3ccccc3)c12 [Example 32]" unit_of_measurement=nM val=143
compound="CCNCCc1cccc2[nH]cc(S(=O)(=O)c3ccccc3)c12 [Example 33]" unit_of_measurement=nM val=207
compound="CN(C)CCc1ccc2[nH]cc(S(=O)(=O)c3ccccc3)c2c1 [Example 1]" unit_of_measurement=nM val=9
compound="O=S(=O)(c1cccc(F)c1)c1c[nH]c2cccc(CCN3CCCC3)c12 [Example 74]" unit_of_measurement=nM val=72
compound="O=S(=O)(c1ccccc1)c1c[nH]c2cc(CCNC3CC3)ccc12 [Example 91]" unit_of_measurement=nM val=41

1. O=S(=O)(c1ccccc1)c1c[nH]c2ccc(CCNC3CCCC3)cc12 [Example 5]
2. CC(NCCc1cccc2[nH]cc(S(=O)(=O)c3ccccc3)c12)C(C)(C)C (stereo not drawn) [Example 46]
3. CCCNCCc1cccc2c(S(=O)(=O)c3ccccc3)c[nH]c12 [Example 20]
Task field, ranking: reported Ki, descending order. Write the labels out in the order the request specifies. 2, 1, 3

----------
assayed-system: human cloned 5-HT6 receptors (Homo sapiens)
Construct: expressed in transfected cells; host or cells: HeLa cells
protocol-summary: 5-HT6 binding affinity, [3H]-LSD displacement on membranes of Hela cells
cond: Table 1; [3H]-LSD 3.0 nM, Hela cell membranes; read-out: Ki (nM) @ 5-HT6 receptor
readout: Ki (nM)

See these solved cases before continuing.
molecule=NCCc1ccc2c(S(=O)(=O)c3ccccc3)c[nH]c2c1 val=10
molecule="O=S(=O)(c1ccccc1)c1c[nH]c2cc(CCNCC3CCCO3)ccc12 (centres unmarked)" val=85
molecule=CCCNCCc1ccc2c(S(=O)(=O)c3ccccc3)c[nH]c2c1 val=150

a. O=S(=O)(c1ccccc1)c1c[nH]c2cccc(CCNCc3ccccc3)c12
b. CN(C)CCc1ccc2c(S(=O)(=O)c3ccccc3)c[nH]c2c1
Which has the higher Ki, a or b ? Mark your selection by writing its label. a

----------
Each record here notes measured melting point.
Where a name gives a salt, the structure may show the parent alone.

In the examples that follow, each entry is paired with its recorded melting point.
compound="CCCNCCc1cccc2c(S(=O)(=O)c3ccccc3)c[nH]c12 (as salt: hydrochloride)" val="260 to 262 °C"
compound="O=S(=O)(c1ccccc1)c1c[nH]c2ccc(CCN3CCCC3)cc12 (as salt: hydrochloride)" val="230 to 232 °C"
compound="O=S(=O)(c1ccccc1)c1c[nH]c2cccc(CCNCc3ccccc3)c12 (as salt: hydrochloride)" val="172 °C"
compound="O=S(=O)(c1ccccc1)c1c[nH]c2cccc(CCNC3CCCCC3)c12 (as salt: hydrochloride)" val="241 °C"
compound="CN(C)CCc1cccc2[nH]cc(S(=O)(=O)c3ccccc3)c12 (as salt: hydrochloride)" val="122 to 126 °C"
compound="O=S(=O)(c1ccccc1)c1c[nH]c2c(CCN3CCNCC3)cccc12 (as salt: hydrochloride)" val="190 °C"
compound="O=S(=O)(c1ccccc1)c1c[nH]c2cccc(CCNC3CCC3)c12 (as salt: hydrochloride)" val="95 to 103 °C"
compound="NCCc1cccc2[nH]cc(S(=O)(=O)c3cccc(F)c3)c12 (as salt: hydrochloride)" val="122 to 125 °C"
compound="O=S(=O)(c1ccccc1)c1c[nH]c2cccc(CCNCC3CCCO3)c12 (centres unmarked) (as salt: hydrochloride)" val="110 to 115 °C"
compound="CCN(CC)CCc1ccc2[nH]cc(S(=O)(=O)c3ccccc3)c2c1 (as salt: hydrochloride)" val="193 to 195 °C"

Return reported melting point; argument: CNCCc1ccc2[nH]c(-c3ccccc3)c(S(=O)(=O)c3ccccc3)c2c1 180 to 185 °C

Next: O=S(=O)(c1ccccc1)c1c[nH]c2c(CCNC3CC3)cccc12 (as salt: hydrochloride) 213 to 216 °C (dec.)

Now consider O=S(=O)(c1ccccc1)c1c[nH]c2cccc(CCNC3CC3)c12 (as salt: hydrochloride) . 145 to 150 °C

----------
assayed-system: human hNET (Homo sapiens)
Construct: expressed in transfected cells
Sequence (P23975 whole entry): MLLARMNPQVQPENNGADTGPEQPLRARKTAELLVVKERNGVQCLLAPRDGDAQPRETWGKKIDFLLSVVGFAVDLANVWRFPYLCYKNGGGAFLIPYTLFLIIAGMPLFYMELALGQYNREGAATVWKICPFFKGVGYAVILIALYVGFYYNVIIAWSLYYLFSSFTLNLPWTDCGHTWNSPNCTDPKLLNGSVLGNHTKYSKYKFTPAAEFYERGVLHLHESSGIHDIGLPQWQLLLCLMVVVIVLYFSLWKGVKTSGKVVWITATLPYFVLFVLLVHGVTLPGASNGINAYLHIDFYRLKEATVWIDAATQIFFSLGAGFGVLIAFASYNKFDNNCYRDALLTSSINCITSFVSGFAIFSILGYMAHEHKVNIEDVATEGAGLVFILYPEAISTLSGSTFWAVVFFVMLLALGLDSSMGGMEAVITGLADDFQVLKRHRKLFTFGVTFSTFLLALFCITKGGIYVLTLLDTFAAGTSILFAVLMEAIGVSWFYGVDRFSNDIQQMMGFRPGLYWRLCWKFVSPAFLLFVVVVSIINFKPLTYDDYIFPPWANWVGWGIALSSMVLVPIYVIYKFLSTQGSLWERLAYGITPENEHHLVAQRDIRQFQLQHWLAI
protocol-summary: Norepinephrine (NE) uptake assay in MDCK-Net6 cells
Type: cell-based
cond: MDCK-Net6
readout: inhibition at 1 µM (%)

molecule="CC(C)(C)CNCCc1cccc2[nH]cc(S(=O)(=O)c3ccccc3)c12 [Example 49]" readout="inhibition at 1 µM" val=37
molecule="CN(C)CCCNCCc1cccc2[nH]cc(S(=O)(=O)c3ccccc3)c12 [Example 50]" readout="inhibition at 1 µM" val=28
molecule="O=S(=O)(c1ccccc1)c1c[nH]c2cccc(CCNCC3CCCO3)c12 (centres unmarked) [Example 51]" readout="inhibition at 1 µM" val=52
molecule="CC1CCC[C@H](C)N1CCc1cccc2[nH]cc(S(=O)(=O)c3ccccc3)c12 (stereo in doubt) [Example 52]" readout="inhibition at 1 µM" val=32
molecule="O=S(=O)(c1ccccc1)c1c[nH]c2cccc(CCN3CCOCC3)c12 [Example 45]" readout="inhibition at 1 µM" val=28
